Cited source for all entries: patent US10150772B2

Format: physicochemical
test context: 40° C. and 75% RH, day 0
Where a name gives a salt, the structure may show the parent alone.
assay endpoint: HPLC Purity (%)
Report only the number, with the unit % understood.

Reference set (2 entries):
compound | HPLC Purity, %
COc1cccc2[nH]c3c4c(c5c(c3c12)C(=O)N(CN1CCN(C)CC1)C5=O)CCC4 [Acetate Salt, Form A1.5] | 99.7
COc1cccc2[nH]c3c4c(c5c(c3c12)C(=O)N(CN1CCN(C)CC1)C5=O)CCC4 [Glycolate Salt Hydrate, Form A1] | 99.8

// query HPLC Purity value for entry COc1cccc2[nH]c3c4c(c5c(c3c12)C(=O)N(CN1CCN(C)CC1)C5=O)CCC4 [L-Malate Salt, Form A1]
99.5

Let us now turn to COc1cccc2[nH]c3c4c(c5c(c3c12)C(=O)N(CN1CCN(C)CC1)C5=O)CCC4.O=C1CC[C@@H](C(=O)O)N1
98.6

---

Type: physicochemical
test context: 40° C. and 75% RH, day 28
Counter-ions that a name gives are not always drawn.
assay endpoint: XRPD

compound | observed measurement
COc1cccc2[nH]c3c4c(c5c(c3c12)C(=O)N(CN1CCN(C)CC1)C5=O)CCC4 [Glycolate Salt Hydrate, Form A1] | No change
COc1cccc2[nH]c3c4c(c5c(c3c12)C(=O)N(CN1CCN(C)CC1)C5=O)CCC4 [L-Malate Salt, Form A1] | No change
COc1cccc2[nH]c3c4c(c5c(c3c12)C(=O)N(CN1CCN(C)CC1)C5=O)CCC4.O=C1CC[C@@H](C(=O)O)N1 | No change

---

Type: physicochemical
test context: 40° C. and 75% RH, day 0
Counter-ions that a name gives are not always drawn.
Listing: TGA of selected compounds
Just the number please, in %, no unit attached.

Check out these entries, answers already filled in.
compound | unit abbreviation | TGA
COc1cccc2[nH]c3c4c(c5c(c3c12)C(=O)N(CN1CCN(C)CC1)C5=O)CCC4.O=C1CC[C@@H](C(=O)O)N1 | % | 0.49
COc1cccc2[nH]c3c4c(c5c(c3c12)C(=O)N(CN1CCN(C)CC1)C5=O)CCC4 [Acetate Salt, Form A1.5] | % | 21.5
COc1cccc2[nH]c3c4c(c5c(c3c12)C(=O)N(CN1CCN(C)CC1)C5=O)CCC4 [L-Malate Salt, Form A1] | % | 0.1

Please examine the following record next.
Given the compound COc1cccc2[nH]c3c4c(c5c(c3c12)C(=O)N(CN1CCN(C)CC1)C5=O)CCC4 [Glycolate Salt Hydrate, Form A1] , what is its reported TGA?
2.1

---

Assay type: physicochemical
test context: 40° C. and 75% RH, day 7
Structures can show the parent of a compound that is named as a salt.
assay endpoint: XRPD

compound | observed measurement
COc1cccc2[nH]c3c4c(c5c(c3c12)C(=O)N(CN1CCN(C)CC1)C5=O)CCC4 [L-Malate Salt, Form A1] | No change
COc1cccc2[nH]c3c4c(c5c(c3c12)C(=O)N(CN1CCN(C)CC1)C5=O)CCC4 [Glycolate Salt Hydrate, Form A1] | No change
COc1cccc2[nH]c3c4c(c5c(c3c12)C(=O)N(CN1CCN(C)CC1)C5=O)CCC4.O=C1CC[C@@H](C(=O)O)N1 | No change

---

Format: physicochemical
test context: 40° C. and 75% RH, day 14
Structures can show the parent of a compound that is named as a salt.
assay endpoint: HPLC Purity (%)
State the answer as a number, implicitly in %.

Please review the entries below; each comes with its answer.
compound | unit abbreviation | HPLC Purity
COc1cccc2[nH]c3c4c(c5c(c3c12)C(=O)N(CN1CCN(C)CC1)C5=O)CCC4 [L-Malate Salt, Form A1] | % | 98.8
COc1cccc2[nH]c3c4c(c5c(c3c12)C(=O)N(CN1CCN(C)CC1)C5=O)CCC4.O=C1CC[C@@H](C(=O)O)N1 | % | 98.2
COc1cccc2[nH]c3c4c(c5c(c3c12)C(=O)N(CN1CCN(C)CC1)C5=O)CCC4 [Acetate Salt, Form A1.5] | % | 99.5

// next item, HPLC Purity requested
What measured HPLC Purity goes with COc1cccc2[nH]c3c4c(c5c(c3c12)C(=O)N(CN1CCN(C)CC1)C5=O)CCC4 [Glycolate Salt Hydrate, Form A1] ?
99.7
